Experiment: folding stability dG unfold from chymotrypsin proteolysis; higher = more stable
measured_attribute: folding stability dG unfold

- SAGGSAGGSAGGSDTPGNYKKVKITLKRVTLGDNNTPKVETVELEVTVPPNYTLEDVLSSAGGSAGGSAGGS [r4_283_TrMRF]: 1.1 kcal/mol
- SANGEMTMMFEFEIFFPGLGYRGKIYVMMRIEPTPNQIRIDLMIMIEIEPIPPPPPKVPPEQNPEDADDSAG [r14_435_TrROS]: 5.18 kcal/mol
- SMFRPFPLPDGRPAYDFIIPGLELASSFFPETGRPVLVLRPGGRLGAAPLFAADLDVLFSRPPLVAVEPDSA [r9_205_TrMRF]: 1.37 kcal/mol
- SAGGSAKLTIELVISDMSPEDAEIAAENIRIELIKKGIPEEEIENVDIKVIVAPVYLDEDNNLILGSAGGSA [r15_684_TrMRF]: 0.657 kcal/mol
- SAGGSPEEIANEVKEKILKELPPGVKVEVSVEVTPEGATVTVKVPEGKEYTVKVEGDKIVEIKLLKKSAGGS [r8_287_JUSTAS]: 1.92 kcal/mol
- SAGGSAGGSATKTIKVKNADGETVELTVEKREDGSYKITLTFPDGTKKTFTIKPGEKIVIKPSAGGSAGGSA [r18_115_TrROS_Hall]: 4.24 kcal/mol
- SAGGSAGGWIPPEMARNIAKTLRDKGWPVEDIEVEREPNGWVTVDVDIQYPDGKKRKYPIQIPYSAGGSAGG [r6_762_TrROS]: 0.226 kcal/mol
- KTISSDELLELLGVSKSELKKLPLEAIVDEVKKALPPGVAVSAKAEPIPENPSYTIVVELKNGEPVTITLDS [r1_340_TrMRF]: 1 kcal/mol
- KKRTIEIPFPANGYKVKIEVPEDQGKPIDEEEIQKLLREWHPDMPADDMPAKEIAKYLADEPGIKEVEIERS [r1_463_TrROS]: 0.479 kcal/mol
- KKIHIMFNNPQHVRRIAKKLGPNVKPDDVKKNPNGYYYFEIDLPNGRPIDIHIPSENMPAEDIVDYALEMLS [r1_279_TrROS]: 0.86 kcal/mol
- SAGGSAGGSAGGPDWRMISIPITFRFYVMEYDGGKPKKAEPIHEHPIPIMIMFPPDALKSAGGSAGGSAGGS [r10_492_TrROS]: 3.35 kcal/mol
- SAGPVVTLTVTVEIEVDGVRVEVTVTATLLPDGTVVITATVKVTLPNGETKTVTVTLTFPPGVDEVVLTSAG [r5_829_TrROS_Hall]: 3.42 kcal/mol
- SAKKKFKVKEVKVTKHKGKFKIGDKEIEKELYTVNVVIEDENGNKYPFTFTFEKPEELKKFVEKLEEEKSAG [r14_36_TrMRF]: 4.08 kcal/mol
- SAGGSAGGSAGGMKLDVTIVGDGKVTTLPADSLEDVEETLKKLGLTLKSVDPATGTVTVASAGGSAGGSAGG [r7_726_JUSTAS]: -0.0786 kcal/mol
- SAGGSAGGIIVWFPFDDIDELIKNGNIDEVEISRDPNDWFRFTPEIRPPPPPPPEQLAKNNKKNSAGGSAGG [r6_279_TrROS]: 0.493 kcal/mol
- SAGMEKKTLTVTHPDGSEATVEVYKNPETGKYVTLVHYPETGKYEVFDDNGNLIATFGNGSAADAFKAISAG [r5_757_TrMRF]: 1.8 kcal/mol
- SAGFKIDDVETEKDPDGEKEITFRYVDPGDGRPWMLNLRINPNGKLTEENPVPFDDFPPGSYWTIRIKSAGG [r19_393_TrROS]: -0.0517 kcal/mol
- SAGNDEEDQKKAEEQQKPPLEIEPIRVMVMVPFPGGDLLISITIPIIKYPDGGIIIPIPIEIIPLEDISAGG [r19_11_TrROS]: 2.84 kcal/mol
- SAKVSHLEFSLPNSVVTPEDLLAALEKLGFPPSKIKKMEIVKVKDNSYVVKIYLENEDGSDSIITLHLPSAG [r14_30_TrMRF]: 2.39 kcal/mol
- SAGGSAGGSAGKKKKKPKKKYVFIVIKINLSEEELKKLAEELGIDKVFKNENGYAVLVVKSAGGSAGGSAGG [r11_64_TrROS_Hall]: 3.56 kcal/mol
- SLEEKIKEAIENSPPNSEVIVPLPDDRTVKITVTPETVTGDGRRRLRIKVTITIYDPSGTKLGEKVLEIPLS [r1_386_JUSTAS]: 4.12 kcal/mol
- SAGGSAGGSMVPGKLLVTITDPNNGLTTTLDLPLEVKTEEDIEAEVQKIKEENPGKKVSVKLLSAGGSAGGS [r12_65_JUSTAS]: 1.69 kcal/mol
- SAGEVETRTLPDGSVEIRRVERDPNSDQEVETRERVTFDPATGTARVPREVYRGDRWETEERVIALPASAGG [r19_289_JUSTAS]: 0.456 kcal/mol
- SAGGSALYIPPGTEHTVLIKLKDDDRYYEAKVTRVYPTSIEVEVEDPLTGEKKRYTINATDIELGDSAGGSA [r15_381_TrMRF]: 2.24 kcal/mol
- SAGGSAGGSAGGKIIHPDLKKPLDVLEKFELIIGGKPYLFFLSRGEGELRLLVIPAGKESAGGSAGGSAGGS [r10_517_TrMRF]: 2.53 kcal/mol
- SAGGSMKIVKIEKIDLAKLKPGDIIEVKLENGEIYRIRIEKNEDGKYTVYIYNKNGELVEEFEFDVSAGGSA [r2_323_TrROS_Hall]: 4.25 kcal/mol
- SAGGSAGGSAGGMKTLTVTTESLTKEEIIEEIKAMGYPNAKVTVTPSPENPDKYIVNVIESAGGSAGGSAGG [r7_988_JUSTAS]: 0.736 kcal/mol

From: the supplement of paper PMC12764529
